B1: library; numbered along this chain (parent)
chain: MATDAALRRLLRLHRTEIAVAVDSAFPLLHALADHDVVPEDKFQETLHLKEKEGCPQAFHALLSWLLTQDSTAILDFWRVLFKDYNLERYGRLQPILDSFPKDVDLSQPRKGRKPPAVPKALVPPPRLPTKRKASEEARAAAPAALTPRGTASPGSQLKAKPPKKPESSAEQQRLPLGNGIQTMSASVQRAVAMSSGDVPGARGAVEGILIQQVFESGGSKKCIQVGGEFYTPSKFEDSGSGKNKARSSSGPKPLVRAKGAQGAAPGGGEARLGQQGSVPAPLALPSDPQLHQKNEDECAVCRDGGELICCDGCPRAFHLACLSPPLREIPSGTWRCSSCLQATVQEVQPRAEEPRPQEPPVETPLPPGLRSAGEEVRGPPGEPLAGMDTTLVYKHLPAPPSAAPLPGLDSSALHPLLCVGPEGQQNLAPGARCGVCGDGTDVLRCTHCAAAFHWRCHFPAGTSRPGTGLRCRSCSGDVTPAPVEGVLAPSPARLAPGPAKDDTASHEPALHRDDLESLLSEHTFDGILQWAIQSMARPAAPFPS

Variants of: B1
RUN DESCRIPTION: AIRE transcriptional activation functional score (insulin promoter-GFP; nonsense median 0, synonymous median 1) (normalised score); higher = higher AIRE activity (more reporter activation)
CONDITION: with insulin promoter-GFP reporter in HEK293
Please mark MET if the recorded AIRE transcriptional activation functional score is equal to or greater than 0.3, and NOT MET if it falls below.

Answered examples (3):
C434E: NOT MET
P124Y: MET
T441H: MET

input: Answer whether AIRE transcriptional activation functional score of Q276D is greater than or equal to 0.3.
output: MET

input: Same thing, different variant: G440W
output: MET

input: Same thing, different variant: E383A
output: MET

input: Same thing, different variant: Q534A
output: MET

input: Same thing, different variant: L392S
output: MET

input: Same thing, different variant: Q94E
output: NOT MET

input: Same thing, different variant: A321L
output: MET

input: Same thing, different variant: Q262A
output: MET

input: Same thing, different variant: S506P
output: MET

input: Same thing, different variant: E383G
output: MET

input: Same thing, different variant: F543V
output: NOT MET

input: Same thing, different variant: A140P
output: MET
